Values compiled from patent US8703913B2.

Kindly supply the reported Kd ratio ATP/ADP values for the records listed here.
Test: Fluorescence titration of labeled ParM with ATP
Type: binding
Settings: Table 2
Write the number on its own, no unit after it.

What value of measured Kd ratio ATP/ADP is listed for S9Q: MDCC-ParM (His6/S9Q/I27C/C287A) (conjugate, UniProt P11904 1-320, looked up, variant S9Q I27C C287A, MDCC label; His6 tag) Plasmid segregation protein …: MLVFIDDGQTNIKLQWQESDGTIKQHCSPNSFKREWAVSFGDKKVFNYTLNGEQYSFDPISPDAVVTTNIAWQYSDVNVVAVHHALLTSGLPVSEVDIVCTLPLTEYYDRNNQPNTENIERKKANFRKKITLNGGDTFTIKDVKVMPESIPAGYEVLQELDELDSLLIIDLGGTTLDISQVMGKLSGISKIYGDSSLGVSLVTSAVKDALSLARTKGSSYLADDIIIHRKDNNYLKQRINDENKISIVTEAMNEALRKLEQRVLNTLNEFSGYTHVMVIGGGAELIADAVKKHTQIRDERFFKTNNSQYDLVNGMYLIGN ?
40

Consider next the molecule T174A: MDCC-ParM (His6/I27C/T174A/C287A) (conjugate, UniProt P11904 1-320, looked up, variant I27C T174A C287A, MDCC label; His6 tag) Plasmid segregation protein …: MLVFIDDGSTNIKLQWQESDGTIKQHCSPNSFKREWAVSFGDKKVFNYTLNGEQYSFDPISPDAVVTTNIAWQYSDVNVVAVHHALLTSGLPVSEVDIVCTLPLTEYYDRNNQPNTENIERKKANFRKKITLNGGDTFTIKDVKVMPESIPAGYEVLQELDELDSLLIIDLGGATLDISQVMGKLSGISKIYGDSSLGVSLVTSAVKDALSLARTKGSSYLADDIIIHRKDNNYLKQRINDENKISIVTEAMNEALRKLEQRVLNTLNEFSGYTHVMVIGGGAELIADAVKKHTQIRDERFFKTNNSQYDLVNGMYLIGN in the same way.
164
